// IC50 lookup, one value per entry
biological target: Alpha glucosidase (Homo sapiens, UniProt O43451+P10253+P14410+Q2M2H8); assay: Inhibition of human alpha-glucosidase expressed in Saccharomyces cerevisiae using p-nitrophenyl-alpha-D-glucopyranoside as substrate after 15 mins
Quick note: give the figure in µM, leave out the unit.

COc1cc(-c2ccc(OCCC(C)C)cc2)c(OC)c(O)c1-c1ccc(O)cc1	14.3

I have this compound here, `COc1cc(-c2ccc(OCc3ccccc3)cc2)c(OC)c(O)c1-c1ccc(O)cc1` , and I need its recorded IC50. 12.5

Again, but for `CCCOc1c(OC)c(-c2ccc(O)cc2)cc(OC)c1-c1ccc(O)cc1` 19.3

Again, but for `COc1cc(-c2ccccc2)c(OC)c(O)c1-c1ccc(O)cc1` 108.2

###

assay: Cytotoxicity against human Chang cells by SRB assay; assay type: cell-based
READOUT KIND: CC50 (µM)
Quick note: give the figure in µM, leave out the unit.

COc1cc(-c2ccc(O)cc2)c(O)c(O)c1-c1ccc(O)cc1	224

I have this compound here, `COc1cc(-c2ccc(OCC=C(C)C)cc2)c(OC)c(OCC=C(C)C)c1-c1ccc(O)cc1` , and I need its recorded CC50. 7.34

Again, but for `C=CCOc1ccc(-c2c(OC)cc(-c3ccc(O)cc3)c(OC)c2O)cc1` 0.57

Again, but for `COc1cc(-c2ccc(O)cc2)c(OC)c(O)c1-c1ccc(O)c(CC=C(C)C)c1` 0.91

Again, but for `COc1cc(-c2ccc(OCC=C(C)C)cc2)c(OC)c(O)c1-c1ccc(O)cc1` 26.2

Again, but for `COc1cc(-c2ccc(O)cc2)c(OC)c(O)c1-c1ccc(OCC=C(C)C)cc1` 0.31

Again, but for `COc1cc(-c2ccc(O)cc2)c(OC)c(OCc2ccccc2)c1-c1ccc(O)cc1` 17.1

###

test: Cytotoxicity against human Chang cells by SRB assay; format: cell-based
READOUT KIND: CC50 (µM)
Quick note: give the figure in µM, leave out the unit.

Known results for compounds:
CCCOc1c(OC)c(-c2ccc(O)cc2)cc(OC)c1-c1ccc(O)cc1	14.5
COc1cc(-c2ccc(O)cc2)c(OC)c(O)c1-c1ccc(OC(c2ccccc2)c2ccccc2)cc1	48.3
CCCOc1ccc(-c2c(OC)cc(-c3ccc(O)cc3)c(OC)c2OCCC)cc1	13.1
COc1cc(-c2ccc(O)cc2)c(OC)c(O)c1-c1ccc(OCc2ccccc2)cc1	23.1
COc1cc(-c2ccc(OCCBr)cc2)c(OC)c(O)c1-c1ccc(O)cc1	95.4
COc1cc(-c2ccc(O)cc2)c(OC)c(OCC=C(C)C)c1-c1ccc(O)cc1	15.9
COc1cc(-c2ccc(O)cc2)c(OC)c(OCCBr)c1-c1ccc(O)cc1	39.1

I have this compound here, `COc1cc(-c2ccc(O)cc2)c(OC)c(O)c1-c1ccc(OCCBr)cc1` , and I need its recorded CC50. 54.4

###

experiment: Cytotoxicity against human Chang cells by SRB assay; type: cell-based
READOUT KIND: log10 of CC50 (log10 of the value in µM)
Scale: log10; quantity: CC50; unit before log: µM

Known results for compounds:
COc1cc(-c2ccc(OCCBr)cc2)c(OC)c(OCCBr)c1-c1ccc(O)cc1	0.70
CCCOc1ccc(-c2cc(OC)c(-c3ccc(O)cc3)c(OCCC)c2OC)cc1	-0.06
COc1cc(-c2ccc(OCc3ccccc3)cc2)c(OC)c(O)c1-c1ccc(O)cc1	1.59
C#CCOc1ccc(-c2cc(OC)c(-c3ccc(O)cc3)c(OCC#C)c2OC)cc1	0.36

# evaluate next
I have this compound here, `COc1cc(-c2ccc(OC(c3ccccc3)c3ccccc3)cc2)c(OC)c(O)c1-c1ccc(O)cc1` , and I need its recorded log10 of CC50. 1.35

###

target: Alpha glucosidase (Homo sapiens, UniProt O43451+P10253+P14410+Q2M2H8); experiment: Inhibition of human alpha-glucosidase expressed in Saccharomyces cerevisiae using p-nitrophenyl-alpha-D-glucopyranoside as substrate after 15 mins
Lab note: compare IC50 with 20 µM, writing rule met if less and rule not met if equal or more.

Here's what some known entries look like.
COc1cc(-c2ccc(O)cc2)c(OC)c(O)c1-c1ccc(OCC=C(C)C)cc1	rule met
COc1cc(-c2ccc(O)cc2)c(O)c(O)c1-c1ccc(O)cc1	rule met
COc1cc(-c2ccc(OCCBr)cc2)c(OC)c(OCCBr)c1-c1ccc(O)cc1	rule met
COc1cc(-c2ccc(O)c(O)c2)c(OC)c(O)c1-c1ccc(O)c(O)c1	rule met
COc1cc(-c2ccc(OCc3ccc(-c4ccccc4)cc3)cc2)c(OC)c(O)c1-c1ccc(O)cc1	rule met
C=CCOc1c(OC)c(-c2ccc(O)cc2)cc(OC)c1-c1ccc(O)cc1	rule not met
COc1cc(-c2ccc(O)cc2)c(OC)c(OCC=C(C)C)c1-c1ccc(O)cc1	rule not met
O=C1C=C(c2ccc(O)cc2)C(=O)C(O)=C1c1ccc(O)cc1	rule not met

Quick check: IC50 of `CCCOc1ccc(-c2c(OC)cc(-c3ccc(O)cc3)c(OC)c2OCCC)cc1` under 20 µM? rule met

Again, but for `CCCOc1ccc(-c2cc(OC)c(-c3ccc(O)cc3)c(O)c2OC)cc1` rule met

Again, but for `COc1c(Br)c(-c2ccc(O)cc2)c(OC)c(O)c1-c1ccc(O)cc1` rule met

Again, but for `COc1cc(-c2ccc(O)cc2)c(OC)c(OCc2ccccc2)c1-c1ccc(O)cc1` rule met

###

// CC50 lookup, one value per entry
assay: Cytotoxicity against human Chang cells by SRB assay; assay type: cell-based
Quick note: give the figure in µM, leave out the unit.

CCCOc1ccc(-c2cc(OC)c(-c3ccc(O)cc3)c(O)c2OC)cc1	98.5
COc1cc(-c2ccc(OCc3ccc(-c4ccccc4)cc3)cc2)c(OC)c(O)c1-c1ccc(O)cc1	12.7
COc1cc(-c2ccc(O)cc2)c(OC)c(O)c1-c1ccc(O)cc1	6.95

# evaluate next
I have this molecule here, `COc1cc(-c2ccc(OCC=C(C)C)cc2)c(OC)c(O)c1-c1ccc(OCC=C(C)C)cc1` , and I need its recorded CC50. 31.1

###

target: Alpha glucosidase (Homo sapiens, UniProt O43451+P10253+P14410+Q2M2H8); test: Inhibition of human alpha-glucosidase expressed in Saccharomyces cerevisiae using p-nitrophenyl-alpha-D-glucopyranoside as substrate after 15 mins
// IC50 lookup, one value per entry
Quick note: give the figure in µM, leave out the unit.

Known results for compounds:
COc1cc(-c2ccc(OCC=C(C)C)cc2)c(OC)c(O)c1-c1ccc(O)cc1	20.1
C#CCOc1ccc(-c2cc(OC)c(-c3ccc(O)cc3)c(OCC#C)c2OC)cc1	20.1
COc1cc(-c2ccc(O)cc2)c(OC)c(O)c1-c1ccc(O)c(CC=C(C)C)c1	25.7

# evaluate next
I have this compound here, `COc1cc(-c2ccc(O)cc2)c(OC)c(O)c1-c1ccc(OCc2ccccc2)cc1` , and I need its recorded IC50. 12.5

###

// IC50 lookup, one value per entry
biological target: Alpha glucosidase (Homo sapiens, UniProt O43451+P10253+P14410+Q2M2H8); assay: Inhibition of human alpha-glucosidase expressed in Saccharomyces cerevisiae using p-nitrophenyl-alpha-D-glucopyranoside as substrate after 15 mins
Please append the unit to your numeric answer.

Known results for molecules:
C=CCOc1ccc(-c2cc(OC)c(-c3ccc(O)cc3)c(O)c2OC)cc1	26.5 µM
COc1cc(-c2ccc(O)cc2)c(OC)c(OCCC(C)C)c1-c1ccc(O)cc1	8.58 µM

I have this molecule here, `COc1cc(-c2ccc(O)cc2)c(OC)c(OCCBr)c1-c1ccc(O)cc1` , and I need its recorded IC50. 18.8 µM

Again, but for `COc1cc(-c2ccc(OCC=C(C)C)cc2)c(OC)c(OCC=C(C)C)c1-c1ccc(O)cc1` 53.1 µM

Again, but for `COc1cc(-c2ccc(O)cc2)c(OC)c(O)c1-c1ccc(O)cc1` 4.79 µM

Again, but for `CCCOc1ccc(-c2c(OC)cc(-c3ccc(O)cc3)c(OC)c2O)cc1` 12.3 µM

Again, but for `C=CCOc1ccc(-c2cc(OC)c(-c3ccc(O)cc3)c(OCC=C)c2OC)cc1` 8.77 µM

###

molecular target: Alpha glucosidase (Homo sapiens, UniProt O43451+P10253+P14410+Q2M2H8); test: Inhibition of human alpha-glucosidase expressed in Saccharomyces cerevisiae using p-nitrophenyl-alpha-D-glucopyranoside as substrate after 15 mins
READOUT KIND: IC50 (µM)
Quick note: give the figure in µM, leave out the unit.

COc1cc(-c2ccc(O)cc2)c(OC)c(O)c1-c1ccc(OCCBr)cc1	18

I have this compound here, `COc1cc(-c2ccc(O)cc2)c(OC)c(O)c1-c1ccc(O)c(O)c1` , and I need its recorded IC50. 11.3

Again, but for `COc1cc(-c2ccc(O)cc2)c(OC)c(OC(=O)c2ccco2)c1-c1ccc(O)cc1` 35.4

Again, but for `COc1cc(-c2ccc(OCCBr)cc2)c(OC)c(O)c1-c1ccc(O)cc1` 16.1

Again, but for `C=CCOc1ccc(-c2c(OC)cc(-c3ccc(O)cc3)c(OC)c2O)cc1` 32.2

Again, but for `CCCOc1ccc(-c2cc(OC)c(-c3ccc(O)cc3)c(OCCC)c2OC)cc1` 8.69

Again, but for `COc1c(Cl)c(-c2ccc(O)cc2)c(OC)c(O)c1-c1ccc(O)cc1` 31.3
